target: KDR (VEGFR2) (Homo sapiens, UniProt P35968); test: Time-dependent kinase inhibition kinetics (progress curve); assay type: biochemical; conditions: KDR
Sequence (P35968 20-1356): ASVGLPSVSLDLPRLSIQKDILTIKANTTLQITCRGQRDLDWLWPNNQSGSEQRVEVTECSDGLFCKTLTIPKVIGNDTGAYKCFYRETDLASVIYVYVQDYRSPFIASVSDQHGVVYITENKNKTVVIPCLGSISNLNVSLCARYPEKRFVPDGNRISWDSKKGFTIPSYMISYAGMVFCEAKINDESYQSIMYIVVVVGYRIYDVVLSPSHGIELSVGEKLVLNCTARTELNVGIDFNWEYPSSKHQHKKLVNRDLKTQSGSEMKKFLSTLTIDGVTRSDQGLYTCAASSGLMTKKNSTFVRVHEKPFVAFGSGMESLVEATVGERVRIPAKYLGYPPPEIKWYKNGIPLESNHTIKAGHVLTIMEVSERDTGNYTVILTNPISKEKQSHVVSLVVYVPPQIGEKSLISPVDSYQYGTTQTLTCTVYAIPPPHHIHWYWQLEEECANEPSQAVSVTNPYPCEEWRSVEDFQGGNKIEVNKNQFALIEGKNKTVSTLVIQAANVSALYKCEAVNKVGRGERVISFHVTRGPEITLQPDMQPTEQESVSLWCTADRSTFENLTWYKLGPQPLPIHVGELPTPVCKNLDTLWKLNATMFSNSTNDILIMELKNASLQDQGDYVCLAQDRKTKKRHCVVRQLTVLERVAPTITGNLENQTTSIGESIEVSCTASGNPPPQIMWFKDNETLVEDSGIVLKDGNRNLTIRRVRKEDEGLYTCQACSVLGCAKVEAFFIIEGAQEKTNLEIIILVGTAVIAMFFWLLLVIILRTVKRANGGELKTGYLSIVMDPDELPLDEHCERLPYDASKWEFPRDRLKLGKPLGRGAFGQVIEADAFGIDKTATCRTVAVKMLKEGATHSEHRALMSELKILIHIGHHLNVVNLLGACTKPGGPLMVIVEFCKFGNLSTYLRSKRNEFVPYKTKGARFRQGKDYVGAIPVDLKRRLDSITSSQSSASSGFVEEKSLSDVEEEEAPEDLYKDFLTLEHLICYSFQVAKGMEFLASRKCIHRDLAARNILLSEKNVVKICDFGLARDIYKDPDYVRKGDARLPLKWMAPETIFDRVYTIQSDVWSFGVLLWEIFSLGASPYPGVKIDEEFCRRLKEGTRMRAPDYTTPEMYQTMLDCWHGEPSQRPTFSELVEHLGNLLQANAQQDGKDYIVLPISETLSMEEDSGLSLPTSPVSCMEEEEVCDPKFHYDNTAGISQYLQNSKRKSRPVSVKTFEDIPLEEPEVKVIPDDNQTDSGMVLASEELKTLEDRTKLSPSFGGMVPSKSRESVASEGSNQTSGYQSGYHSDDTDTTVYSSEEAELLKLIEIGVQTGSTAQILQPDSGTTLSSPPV
quantity: pKi
Scale note: pKi = -log10(concentration in M).

(Q) Which pKi reading was recorded for the molecule `COc1cc(O)c2c(c1)[C@H]1O[C@@H]1C[C@H](O)[C@H](O)C(=O)/C=C\C[C@H](C)OC2=O` ?
(A) 8.00

----------
tested on: A375 (Human melanoma, B-Raf V599E); test: Cell proliferation assay (Cell Titer Glo); type: cell-based; conditions: A375 (Human melanoma, B-Raf V599E); Tables 1 and 4; read-out: Kinase Inhibitor IC50
quantity: IC50 (µM)
Use µM as the unit, but write only the number.

(Q) Query the reported IC50 for A375 (Human melanoma, B-Raf V599E); item: COc1cccc(-c2cc(=O)c3ccccc3o2)c1N [PD 98059]
(A) 43

----------
Molecular target: Flt-3 (Homo sapiens, UniProt P36888)
Sequence (P36888 27-993): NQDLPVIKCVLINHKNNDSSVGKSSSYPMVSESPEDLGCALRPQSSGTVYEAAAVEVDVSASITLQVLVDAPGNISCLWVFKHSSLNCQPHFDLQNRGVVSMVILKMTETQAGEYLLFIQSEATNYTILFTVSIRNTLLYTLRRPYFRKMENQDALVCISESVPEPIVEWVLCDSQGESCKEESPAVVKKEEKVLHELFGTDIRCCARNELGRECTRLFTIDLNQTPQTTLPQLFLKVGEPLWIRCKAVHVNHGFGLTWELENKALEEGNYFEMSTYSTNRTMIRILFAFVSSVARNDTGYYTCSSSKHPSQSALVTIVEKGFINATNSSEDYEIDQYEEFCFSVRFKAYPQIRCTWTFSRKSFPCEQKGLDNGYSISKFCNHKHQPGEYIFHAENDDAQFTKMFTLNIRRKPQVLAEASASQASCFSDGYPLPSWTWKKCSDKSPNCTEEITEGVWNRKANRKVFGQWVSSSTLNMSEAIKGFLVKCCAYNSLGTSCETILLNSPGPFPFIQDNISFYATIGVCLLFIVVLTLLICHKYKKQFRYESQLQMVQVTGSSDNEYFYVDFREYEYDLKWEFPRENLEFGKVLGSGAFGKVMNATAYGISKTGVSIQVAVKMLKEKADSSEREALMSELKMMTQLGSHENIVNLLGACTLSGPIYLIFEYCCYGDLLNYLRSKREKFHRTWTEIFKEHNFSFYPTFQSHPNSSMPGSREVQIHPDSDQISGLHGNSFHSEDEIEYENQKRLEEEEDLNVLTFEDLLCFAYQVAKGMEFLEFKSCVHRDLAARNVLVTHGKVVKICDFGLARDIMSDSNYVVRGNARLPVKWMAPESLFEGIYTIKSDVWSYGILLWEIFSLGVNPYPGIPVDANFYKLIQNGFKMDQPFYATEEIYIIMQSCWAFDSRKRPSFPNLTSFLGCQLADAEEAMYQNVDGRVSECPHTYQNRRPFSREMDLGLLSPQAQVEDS
Assay: Time-dependent kinase inhibition kinetics (progress curve)
Details: 1 mM ATP
quantity: Ki (nM)
Kindly answer with a numeric value in nM, unit omitted.

(Q) Please tell me: Ki of `COc1cc(O)c2c(c1)[C@H]1O[C@@H]1C[C@H](O)[C@H](O)C(=O)/C=C\C[C@H](C)OC2=O` , system Flt-3 (Homo sapiens, UniProt P36888)?
(A) 150
